Measured values drawn from ChEMBL document CHEMBL4304804 for this set.

tested on: Aspergillus flavus; assay: Antifungal activity against Aspergillus flavus assessed as reduction in fungal cell growth incubated for 48 hrs by serial dilution method; type: functional
Active and inactive are the calls of the source. The rule behind the calls is not given here.
Property Measured: MIC

Use the examples below as a reference point.
> print(dat)
                                   compound  property.measured     result
1  Cc1cccc(C(=O)N2CCCC3(O)c4ccccc4N(C)C23)c1 (stereo not given)                MIC   inactive
2  CCCCCC(=O)N1CCC2(Cc3cccc(C)c3)c3ccccc3N(Cc3cccc(C)c3)C12 (stereo not given)                MIC  250 µg/mL
3  Cc1cccc(CN2c3ccccc3C3(Cc4cccc(C)c4)CCN(S(=O)(=O)c4ccccc4)C23)c1 (stereo not given)                MIC  250 µg/mL
4  CCCCCCC(=O)N1CCC2(Cc3cccc(C)c3)c3ccccc3N(Cc3cccc(C)c3)C12 (stereo not given)                MIC  250 µg/mL

Can you give me MIC for all of these, one by one?
1. CCC(=O)N1CCCC2(O)c3ccccc3N(C)C12 (stereo not given)
2. Cc1cccc(CN2c3ccccc3C3(Cc4cccc(C)c4)CCN(C(=O)C(F)(F)F)C23)c1 (stereo not given)
3. CCC(=O)N1CCC2(Cc3cccc(C)c3)c3ccccc3N(Cc3cccc(C)c3)C12 (stereo not given)
4. CCCCCCCC(=O)N1CCCC2(O)c3ccccc3N(C)C12 (stereo not given)
5. COc1ccc(C(=O)N2CCC3(Cc4ccccc4C)c4ccccc4N(Cc4ccccc4C)C23)cc1 (stereo not given)
6. Cc1cccc(CN2c3ccccc3C3(Cc4cccc(C)c4)CCN(C(=O)COc4ccccc4)C23)c1 (stereo not given)

1: inactive; 2: 250 µg/mL; 3: 250 µg/mL; 4: 125 µg/mL; 5: 250 µg/mL; 6: 250 µg/mL
